Would you kindly list EC50 for each of these binders?
- TESTED ON: T1, human C4.4a natively expressed on tumor cell lines (human, UniProt O95274 31-326)
- T1 construct: whole, on cells; also called NCI H292; NCI H322
- T1 sequence (looked up): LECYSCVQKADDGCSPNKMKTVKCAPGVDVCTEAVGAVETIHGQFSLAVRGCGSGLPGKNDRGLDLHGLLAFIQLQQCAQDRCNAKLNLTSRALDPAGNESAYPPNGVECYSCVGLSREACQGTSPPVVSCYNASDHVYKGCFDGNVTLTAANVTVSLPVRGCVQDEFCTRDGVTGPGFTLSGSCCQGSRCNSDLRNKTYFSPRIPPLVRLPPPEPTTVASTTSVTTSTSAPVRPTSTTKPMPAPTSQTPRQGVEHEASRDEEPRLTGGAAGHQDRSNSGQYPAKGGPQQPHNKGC
- EXPERIMENTAL PROTOCOL: FACS titration of IgG1 on NCI H292 cells
- Experimental: FACS titration was performed in a 96 well microtiter plate, in which serial dilutions of the primary antibody in a volume of 50 W of FACS buffer (3% FCS, in PBS) were mixed with 50 μl of a cell suspension consisting of 2×10^5 cells/ml which had been detached with Cell Dissociation Solution (1×) Non-enzymatic (Sigma), and resuspended in FACS buffer. […] EC₅₀ values were determined from fluorescence medians of duplicates using Swift 8.0 software.
Answers are plain numbers, in nM.

Solved entries:
BINDER	EC50 [nM]
B01-5 (antibody, human IgG1, V domains shown, tested as human IgG1; also called B01-05) VH: EVQLLESGGGLVQPGGSLRLSCAASGFTFSNAWMSWVRQAPGKGLEWVSYISSSGSTIYYADSVKGRFTISRDNSKNTLYLQMNSLRAEDTAVYYCAREGLWAFDYWGQGTLVTVSS VL: QSVLTQPPSVSGAPGQRVTISCTGSSSNIGAGYVVHWYQQLPGTAPKLLIYDNNKRPSGVPDRFSGSKSGTSASLAISGLRSEDEADYYCAAYDDSLSGPVFGGGTKLTVLG	0.05
M31-B01 (antibody, human IgG1, V domains shown, tested as human IgG1) VH: EVQLLESGGGLVQPGGSLRLSCAASGFTFSNAWMSWVRQAPGKGLEWVSYISSSGSTIYYADSVKGRFTISRDNSKNTLYLQMNSLRAEDTAVYYCAREGLWAFDYWGQGTLVTVTS VL: QSVLTQPPSASGTPGQRVTISCTGSSSNIGAGYVVHWYQQLPGTAPKLLIYDNNKRPSGVPDRFSGSKSGTSASLAISGLRSEDEADYYCAAWDDRLNGPVFGGGTKLTVLG	0.3
B01-3 (antibody, human IgG1, V domains shown, tested as human IgG1; also called B01-03) VH: EVQLLESGGGLVQPGGSLRLSCAASGFTFSNAWMSWVRQAPGKGLEWVSYISSSGSTIYYADSVKGRFTISRDNSKNTLYLQMNSLRAEDTAVYYCAREGLWAFDYWGQGTLVTVSS VL: ESVLTQPPSVSGAPGQRVTISCTGSSSNIGAGYVVHWYQQLPGTAPKLLIYDNNKRPSGVPDRFSGSKSGTSASLAISGLRSEDEADYYCAAWDDRLNGPVFGGGTKLTVLG	0.06

Consider the additional binder presented here.
Exercise: Please indicate EC50 recorded for B01-10 (antibody, human IgG1, V domains shown, tested as human IgG1) VH: EVQLLESGGGLVQPGGSLRLSCAASGFTFSSAWMSWVRQAPGKGLEWVSYISSSGSTIYYADSVKGRFTISRDNSKNTLYLQMNSLRAEDTAVYYCAREGLWAFDYWGQGTLVTVSS VL: QSVLTQPPSVSGAPGQRVTISCTGSSSNIGAGYVVHWYQQLPGTAPKLLIYDNNKRPSGVPDRFSGSKSGTSASLAISGLRSEDEADYYCAAYDDSLSGPVFGGGTKLTVLG
Solution: 0.1
